property: IC50 (nM)
Return type: number; implicit unit nM.

Input: Recorded IC50 for Cc1cc(C)c(N(Cc2ccccc2)S(=O)(=O)c2ccc(OCCCc3ccccc3)cc2)c(C(=O)NO)c1 [Compound F] with MMP-13 (Homo sapiens, UniProt P45452), please?
Output: 301

Input: Recorded IC50 for Cc1cc(C)c(N(Cc2ccccc2)S(=O)(=O)c2ccc(OCCNC(=O)c3cc4ccccc4o3)cc2)c(C(=O)NO)c1 [Compound E] with MMP-13 (Homo sapiens, UniProt P45452), please?
Output: 17

Input: Recorded IC50 for Cc1cc(C)c(N(Cc2ccccc2)S(=O)(=O)c2ccc(OCCc3ccccc3)cc2)c(C(=O)NO)c1 [Compound C] with MMP-13 (Homo sapiens, UniProt P45452), please?
Output: 75

---

Here's a batch of molecules along with measured pIC50 for MMP-1 (Homo sapiens, UniProt P03956).
Entry type: numeric. Quantity: pIC50, the -log10 of concentration in molar units.

Input: Recorded pIC50 for Cc1cc(C)c(N(Cc2ccccc2)S(=O)(=O)c2ccc(OCCCc3ccccc3)cc2)c(C(=O)NO)c1 with MMP-1 (Homo sapiens, UniProt P03956), please?
Output: 5.99

Input: Recorded pIC50 for Cc1cc(C)c(N(Cc2ccccc2)S(=O)(=O)c2ccc(OCCc3ccccc3)cc2)c(C(=O)NO)c1 with MMP-1 (Homo sapiens, UniProt P03956), please?
Output: 6.12

---

molecular target: TACE (Homo sapiens, UniProt P78536)
Sequence (P78536 215-824): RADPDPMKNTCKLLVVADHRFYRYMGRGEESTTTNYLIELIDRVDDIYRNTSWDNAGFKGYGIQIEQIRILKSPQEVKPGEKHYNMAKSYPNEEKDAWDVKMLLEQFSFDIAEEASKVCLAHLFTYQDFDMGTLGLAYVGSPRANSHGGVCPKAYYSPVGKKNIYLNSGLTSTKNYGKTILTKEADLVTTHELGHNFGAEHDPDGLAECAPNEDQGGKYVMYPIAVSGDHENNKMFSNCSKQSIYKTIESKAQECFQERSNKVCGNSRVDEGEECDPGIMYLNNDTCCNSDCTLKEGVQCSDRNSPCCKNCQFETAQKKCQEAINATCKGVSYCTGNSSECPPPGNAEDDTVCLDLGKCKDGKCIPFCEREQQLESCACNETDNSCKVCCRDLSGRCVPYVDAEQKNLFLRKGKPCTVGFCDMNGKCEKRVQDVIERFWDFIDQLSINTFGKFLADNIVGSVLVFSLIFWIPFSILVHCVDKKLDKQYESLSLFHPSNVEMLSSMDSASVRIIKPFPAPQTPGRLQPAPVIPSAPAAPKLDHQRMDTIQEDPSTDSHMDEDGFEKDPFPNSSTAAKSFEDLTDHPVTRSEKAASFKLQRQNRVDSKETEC
property: pIC50
Entry type: numeric. Quantity: pIC50, the -log10 of concentration in molar units.

Input: Recorded pIC50 for COc1ccc(S(=O)(=O)N(Cc2ccccc2)c2c(C)cc(C)cc2C(=O)NO)cc1 [Compound D] with TACE (Homo sapiens, UniProt P78536), please?
Output: 6.62
